Assay Summary: phase Ib dose-finding study, population pharmacokinetics
Format: in vivo, human
Settings: human, plasma, oral; patients
Property: Tmax

Task item: Which Tmax is listed for Cc1sc2c(c1C)C(c1ccc(Cl)cc1)=N[C@@H](CC(=O)Nc1ccc(O)cc1)c1nnc(C)n1-2 [Compound (1-1), dihydrate] ?
Reply: 1 to 4 h

----------
Assay Summary: phase Ib dose-finding study, population pharmacokinetics
Format: in vivo, human
Settings: human, plasma, oral; all patients; read-out: mean elimination half-life (converted)
Property: half-life
Could you write the number and then its unit?

Task item: Recorded half-life of Cc1sc2c(c1C)C(c1ccc(Cl)cc1)=N[C@@H](CC(=O)Nc1ccc(O)cc1)c1nnc(C)n1-2 [Compound (1-1), dihydrate] , please.
Reply: 5.8 h
